# assayExplanation: EPSA
# Assay type: physicochemical
# conditionDetails: EPSA
For each entry below, report its EPSA value.
Answers are plain numbers, in A^2.

- CC(=O)N[C@@H](CCCCN=[N+]=[N-])C(=O)NCCC(=O)N[C@H](C(=O)N[C@@H](CO)C(=O)N[C@@H](Cc1ccccc1)C(=O)N[C@]1(C)CCCCCCC=CCCC[C@@](C)(C(=O)N[C@@H](CO)C(=O)N[C@@H](C)C(=O)N[C@@H](C)C(N)=O)NC(=O)[C@H](CC(C)C)NC(=O)[C@H](CC(C)C)NC(=O)[C@H](C)NC(=O)[C@H](Cc2c[nH]c3ccccc23)NC(=O)[C@H](Cc2ccc(O)cc2)NC(=O)[C@H](CCC(=O)O)NC1=O)[C@@H](C)O [MP-686]: 193
- CC(=O)N[C@@H](CCCCN=[N+]=[N-])C(=O)NCCC(=O)N[C@@H](CC(C)C)C(=O)N[C@H](C(=O)N[C@@H](Cc1ccccc1)C(=O)N[C@]1(C)CCCCCCC=CCCC[C@@](C)(C(=O)N[C@@H](CO)C(=O)N[C@@H](C)C(=O)N[C@@H](C)C(N)=O)NC(=O)[C@H](CC2CCC2)NC(=O)[C@H](CCC(N)=O)NC(=O)[C@H](C)NC(=O)[C@H](Cc2c[nH]c3ccccc23)NC(=O)[C@H](CCC(=O)O)NC(=O)[C@H](CCC(=O)O)NC1=O)[C@@H](C)O [MP-842]: 216
- CC(=O)N[C@@H](CCCCN)C(=O)NCCCCCC(=O)N[C@H](C(=O)N[C@@H](CO)C(=O)N[C@@H](Cc1ccccc1)C(=O)N[C@]1(C)CCCCCCC=CCCC[C@@](C)(C(=O)N[C@@H](CCC(=O)O)C(=O)N[C@@H](CC(N)=O)C(=O)N[C@@H](Cc2ccccc2)C(N)=O)NC(=O)[C@H](CC(C)C)NC(=O)[C@H](CC(C)C)NC(=O)[C@H](C)NC(=O)[C@H](Cc2c[nH]c3ccccc23)NC(=O)[C@H](Cc2ccc(O)cc2)NC(=O)[C@H](CCC(=O)O)NC1=O)[C@@H](C)O [MP-6210]: 255
- CC(=O)N[C@@H](CCCCN=[N+]=[N-])C(=O)NCCC(=O)N[C@@H](CC(C)C)C(=O)N[C@H](C(=O)N[C@@H](CCC(=O)O)C(=O)N[C@]1(C)CCCCCCC=CCCC[C@@](C)(C(=O)N[C@@H](CO)C(=O)N[C@@H](C)C(=O)N[C@@H](C)C(N)=O)NC(=O)[C@H](CC2CCC2)NC(=O)[C@H](CCC(N)=O)NC(=O)[C@H](C)NC(=O)[C@H](Cc2c[nH]c3ccccc23)NC(=O)[C@H](Cc2ccc(O)cc2)NC(=O)[C@H](CCC(=O)O)NC1=O)[C@@H](C)O [MP-843]: 208

Hi there! I need EPSA for each item below, if you can.
1. CC(=O)N[C@H](C(=O)N[C@@H](CO)C(=O)N[C@@H](Cc1ccccc1)C(=O)N[C@]1(C)CCCCCCC=CCCC[C@@](C)(C(N)=O)NC(=O)[C@H](CC(C)C)NC(=O)[C@H](CC(C)C)NC(=O)[C@H](C)NC(=O)[C@H](Cc2c[nH]c3ccccc23)NC(=O)[C@H](Cc2ccc(O)cc2)NC(=O)[C@H](CCC(=O)O)NC1=O)[C@@H](C)O [MP-090]
2. CC(=O)N[C@@H](CCCNC(=N)N)C(=O)N[C@@H](CCCNC(=N)N)C(=O)NCCC(=O)N[C@@H](CC(C)C)C(=O)N[C@H](C(=O)N[C@@H](Cc1ccccc1)C(=O)N[C@]1(C)CCCCCCC=CCCC[C@@](C)(C(=O)N[C@@H](CO)C(=O)N[C@@H](C)C(=O)N[C@@H](C)C(N)=O)NC(=O)[C@H](CC2CCC2)NC(=O)[C@H](CCC(N)=O)NC(=O)[C@H](C)NC(=O)[C@H](Cc2c[nH]c3ccccc23)NC(=O)[C@H](Cc2ccc(O)cc2)NC(=O)[C@H](CCC(=O)O)NC1=O)[C@@H](C)O [MP-4002]
3. CC(=O)N[C@@H](CCCCN=[N+]=[N-])C(=O)N[C@@H](CCCCN)C(=O)N[C@@H](CC(C)C)C(=O)N[C@H](C(=O)N[C@@H](Cc1ccccc1)C(=O)N[C@]1(C)CCCCCCC=CCCC[C@@](C)(C(=O)N[C@@H](CO)C(=O)N[C@@H](C)C(=O)N[C@@H](C)C(N)=O)NC(=O)[C@H](CC2CCC2)NC(=O)[C@H](CCC(N)=O)NC(=O)[C@H](C)NC(=O)[C@H](Cc2c[nH]c3ccccc23)NC(=O)[C@H](Cc2ccc(O)cc2)NC(=O)[C@H](CCC(=O)O)NC1=O)[C@@H](C)O [MP-025]
4. CC(=O)N[C@@H](CCCNC(=N)N)C(=O)N[C@@H](CCCNC(=N)N)C(=O)NCCC(=O)N[C@@H](CCCCN=[N+]=[N-])C(=O)N[C@@H](CC(C)C)C(=O)N[C@H](C(=O)N[C@@H](Cc1ccccc1)C(=O)N[C@]1(C)CCCCCCC=CCCC[C@@](C)(C(=O)N[C@@H](CO)C(=O)N[C@@H](C)C(=O)N[C@@H](C)C(N)=O)NC(=O)[C@H](CC2CCC2)NC(=O)[C@H](CCC(N)=O)NC(=O)[C@H](C)NC(=O)[C@H](Cc2c[nH]c3ccccc23)NC(=O)[C@H](Cc2ccc(O)cc2)NC(=O)[C@H](CCC(=O)O)NC1=O)[C@@H](C)O [MP-006]
5. CC(=O)N[C@@H](CCCCN=[N+]=[N-])C(=O)NCCC(=O)N[C@@H](CC(C)C)C(=O)N[C@H](C(=O)N[C@@H](Cc1ccccc1)C(=O)N[C@]1(C)CCCCCCC=CCCC[C@@](C)(C(=O)N[C@@H](CO)C(=O)N[C@@H](C)C(=O)N[C@@H](C)C(N)=O)NC(=O)[C@H](CC2CCC2)NC(=O)[C@H](CCC(N)=O)NC(=O)[C@H](C)NC(=O)[C@H](CCC(=O)O)NC(=O)[C@H](Cc2ccc(O)cc2)NC(=O)[C@H](CCC(=O)O)NC1=O)[C@@H](C)O [MP-956]

201
212
205
226
198

* * *

# assayExplanation: Solubility assay (kinetic solubility, PBS pH 7)
# Assay type: physicochemical
# conditionDetails: pH 7, aqueous buffer, kinetic from dmso stock, pH 7, PBS; read-out: Solubility
Positions of bridges follow the written chain, without caps; N, C: chain ends. Non-standard residues stand in square brackets, D forms with d. Residues, ends and D or L forms follow the SMILES beside them. Lys(N3) = [N-]=[N+]=NCCCC[C@H](N)C(=O)O; R8 = C=CCCCCCC[C@@](C)(N)C(=O)O; Cba = N[C@@H](CC1CCC1)C(=O)O; S5 = C=CCCC[C@](C)(N)C(=O)O; βAla = NCCC(=O)O
Record t whenever solubility kinetic is at 90 µM or higher; record f when lower.

Example entries begin here.
- CC(=O)N[C@@H](CCCCN=[N+]=[N-])C(=O)NCCC(=O)N[C@@H](CC(C)C)C(=O)N[C@H](C(=O)N[C@@H](Cc1ccccc1)C(=O)N[C@]1(C)CCCCCCC=CCCC[C@@](C)(C(=O)N[C@@H](CO)C(=O)N[C@@H](C)C(=O)N[C@@H](C)C(N)=O)NC(=O)[C@H](CC2CCC2)NC(=O)CNC(=O)[C@H](C)NC(=O)[C@H](Cc2c[nH]c3ccccc23)NC(=O)[C@H](Cc2ccc(O)cc2)NC(=O)[C@H](CCC(=O)O)NC1=O)[C@@H](C)O [MP-262] (Ac-[Lys(N3)][βAla]LTF[R8]EYWAG[Cba][S5]SAA-NH2; staple 6-13): f
- CC(=O)N[C@@H](CCCCN=[N+]=[N-])C(=O)NCCC(=O)N[C@@H](CC(C)C)C(=O)N[C@H](C(=O)N[C@@H](Cc1ccccc1)C(=O)N[C@@]1(C)CCCCCCC=CCCC[C@@](C)(C(=O)N[C@@H](CO)C(=O)N[C@@H](C)C(=O)N[C@@H](C)C(N)=O)NC(=O)[C@H](CC2CCC2)NC(=O)[C@H](CCC(N)=O)N(C)C(=O)[C@H](C)NC(=O)[C@H](Cc2c[nH]c3ccccc23)NC(=O)[C@H](Cc2ccc(O)cc2)NC(=O)[C@H](CCC(=O)O)NC1=O)[C@@H](C)O: t
- CC(=O)N[C@@H](CC(C)C)C(=O)N[C@H](C(=O)N[C@@H](Cc1ccccc1)C(=O)NC(C)(C)C(=O)N[C@H](CCC(=O)O)C(=O)N[C@@H](Cc1ccc(O)cc1)C(=O)N[C@@H](Cc1c[nH]c2ccccc12)C(=O)N[C@@H](CCC(N)=O)C(=O)N[C@@H](CC(C)C)C(=O)N[C@@H](CC1CCC1)C(=O)NC(C)(C)C(=O)N[C@@H](CO)C(=O)N[C@@H](C)C(=O)N[C@@H](C)C(N)=O)[C@@H](C)O: f

Moving on to the next compound.
solubility kinetic >= 90 µM for CC(=O)N[C@@H](CCCCN=[N+]=[N-])C(=O)NCCC(=O)N[C@@H](CC(C)C)C(=O)N[C@H](C(=O)N[C@@H](Cc1ccccc1)C(=O)N[C@]1(C)CCCCCCC=CCCC[C@@](C)(C(=O)N[C@@H](CO)C(=O)N[C@@H](CCC(=O)O)C(=O)N[C@@H](C)C(N)=O)NC(=O)[C@H](CC2CCC2)NC(=O)[C@H](CCC(N)=O)NC(=O)[C@H](C)NC(=O)[C@H](Cc2c[nH]c3ccccc23)NC(=O)[C@H](Cc2ccc(O)cc2)NC(=O)[C@H](CCC(=O)O)NC1=O)[C@@H](C)O ?
t
